- Tested on: SF-295 CNS
- test-protocol: NCI-60 one-dose screen, 48 h (100 = growth as untreated, 0 = no growth, -100 = all killed)
- condition-set: 10 µM unless noted
This is part of a sample that, as a whole, favours compounds with a hit. Of some 83,000 tested, about 20% had one in any assay.
result-type: growth (%)
// note: answer is a bare numeric in %

Param item = `OCc1c(-c2ccccc2)nc2sccn12` ; retrieve measured growth. 112

Param item = `COc1cc2nc(Cl)nc(NCCO)c2cc1OC` ; retrieve measured growth. 103

Param item = `O=C(Nc1ccc(I)cc1)c1cc([N+](=O)[O-])ccc1O` ; retrieve measured growth. 33.7

Param item = `COc1cccc2cc(-c3cc4ccccc4[nH]3)/c(=N/C(=S)Nc3ccccc3)oc12` ; retrieve measured growth. 87.1

Param item = CC(C(=O)n1cc(-c2ccccc2)c(-c2ccccc2)c1)c1ccccc1 (configuration not stated) ; retrieve measured growth. 91.9

New cases:
Param item = `CC(C)N(Cc1ccc(CN(C(=O)CCl)C(C)C)cc1)C(=O)CCl` ; retrieve measured growth. 28.2

Param item = CC(=O)N1Cc2ccccc2C(C)Cc2cc(Cl)ccc21 (configuration not stated) ; retrieve measured growth. 110

----------
- Tested on: HT29 colon
- test-protocol: NCI-60 one-dose screen, 48 h (100 = growth as untreated, 0 = no growth, -100 = all killed)
- condition-set: 10 µM unless noted
Compounds without any hit were thinned out: in the full panel of roughly 83,000, 20% have a hit.
growth strictly under 50% means t; at 50% or over means f.

These recorded examples may help you get a feel for the data.
# check: growth < 50% for `O=C(Nc1cc(C(F)(F)F)cc(C(F)(F)F)c1)Nc1ccc(OCc2nnc(-c3ccc(Cl)cc3)o2)c(F)c1` t

# check: growth < 50% for `O=S(=O)(NCCCNc1nccc(-c2c(-c3ccccc3)nc3sccn23)n1)c1ccc(F)cc1` t

New cases:
# check: growth < 50% for COc1ccc(C2CC(=O)Nc3c2c(C)nn3-c2nc3ccccc3[nH]2)cc1OC (stereo not given) f

# check: growth < 50% for `CCN(CC)CCCNc1nc(C)cc(Nc2ccc3nc(C)cc(N)c3c2)n1` f

----------
- Tested on: SNB-75 CNS
- test-protocol: NCI-60 one-dose screen, 48 h
- condition-set: 10 µM unless noted
About 83,000 compounds went through this panel and 20% of them were active in at least one assay; those are over-represented in the sample as a whole. Calls of active or inactive are those of the source. The calls were made as follows: active = growth percent below 10; inactive = the rest.
In this exercise, the only acceptable responses are Y (active), N (inactive)

These recorded examples may help you get a feel for the data.
Hey, what did the test say about CCC(c1ccc(OC)cc1)C(CC)c1ccc(OCC[N+](C)(C)C)cc1 (centres undefined) ? N

Hey, what did the test say about O=C(Nc1ccccc1)OCC1OCOC(COC(=O)Nc2ccccc2)C1OC(=O)Nc1ccccc1 (centres undefined) ? N

Hey, what did the test say about `COc1cc(-c2cc(/C=C3\CCCCC3=O)[nH]n2)cc(OC)c1OC` ? N

Hey, what did the test say about COc1ccc(C2SCC(=O)N2NC(=O)c2ccc(NC(=O)c3ccccn3)cc2)cc1OC (centres undefined) ? N

Hey, what did the test say about CCCCn1c(=O)c(C2CNC(=O)c3ccccc3N2)cc2ccccc21 (centres undefined) ? N

New cases:
Hey, what did the test say about `Clc1nc(Cl)c2ncn(C/C=C/Cn3cnc4c(Cl)nc(Cl)nc43)c2n1` ? N

Hey, what did the test say about `COc1cc(-c2nc(-c3nc4ccccc4[nH]3)cc3c2[nH]c2ccccc23)cc(OC)c1OC` ? N

Hey, what did the test say about `CCCCCc1c(C)[nH]c(/C=c2\[nH]/c(=C3/C=c4ccccc4=N3)cc2OC)c1C` ? Y

Hey, what did the test say about `Cc1cc(C(=O)CSc2nc3ccccc3c(=O)[nH]2)c(C)n1C` ? N
